For each of the compounds below, state its Vd.
- Assay Procedure: Volume of distribution in rat
- Assay type: ADME, organism-based
- Measurement Parameters: in vivo, read-out: Vdss
Answer format: numeric, L/kg implied, no suffix.

Which Vd reading was recorded for the compound CC(C)(C)N1CCC(c2cc(-c3ccc(F)cc3F)c3ccc(=O)n(-c4c(Cl)cccc4Cl)c3c2)CC1 ?
3.82

Now the same for CC(C)(C)N1CCC(c2cc(-c3ccc(F)cc3Cl)c3ccc(=O)n(-c4c(Cl)cccc4Cl)c3c2)CC1
3.84

Now the same for CC(C)(C)N1CCC(c2cc3c(ccc(=O)n3-c3c(Cl)cccc3Cl)c(-c3ccc(F)cc3F)n2)CC1
24

Now the same for CN1C2CCC1CC(c1cc(-c3ccc(F)cc3Cl)c3ccc(=O)n(-c4c(Cl)cccc4Cl)c3c1)C2 (centres undefined)
6.87

* * *

- Assay Procedure: Oral bioavailability in rhesus monkey
- Assay type: ADME, organism-based, Macaca mulatta
- Measurement Parameters: in vivo
Quantity Name: bioavailability
Remember to quote the unit after the number.

Which bioavailability reading was recorded for the compound CC(C)(C)N1CCC(c2cc(-c3ccc(F)cc3Cl)c3ccc(=O)n(-c4c(Cl)cccc4Cl)c3c2)CC1 ?
49%

Now the same for CC(C)(C)N1CCC(c2cc3c(ccc(=O)n3-c3c(Cl)cccc3Cl)c(-c3ccc(F)cc3Cl)n2)CC1
33%

Now the same for CC(C)(C)N1CCC(c2cc(-c3ccc(F)cc3Cl)c3ccc(=O)n(-c4c(F)cccc4F)c3c2)CC1
31.5%

Now the same for CC(C)(C)N1CCC(c2cc(-c3ccc(F)cc3F)c3ccc(=O)n(-c4c(Cl)cccc4Cl)c3c2)CC1
56.5%

Now the same for CC(C)(C)N1CCC(c2cc3c(ccc(=O)n3-c3c(Cl)cccc3Cl)c(-c3ccc(F)cc3F)n2)CC1
23%

* * *

- Assay Procedure: Oral bioavailability in rat
- Assay type: ADME, organism-based
- Measurement Parameters: in vivo
Quantity Name: bioavailability (%)
Answer format: numeric, % implied, no suffix.

Which bioavailability reading was recorded for the compound CC(C)(C)N1CCC(c2cc(-c3ccc(F)cc3Cl)c3ccc(=O)n(-c4c(F)cccc4F)c3c2)CC1 ?
57

Now the same for CN1C2CCC1CC(c1cc(-c3ccc(F)cc3Cl)c3ccc(=O)n(-c4c(Cl)cccc4Cl)c3c1)C2 (centres undefined)
30

Now the same for CC(C)(C)N1CCC(Oc2cc(-c3ccccc3Cl)c3ccc(=O)n(-c4c(Cl)cccc4Cl)c3c2)CC1
32.3

Now the same for CC(C)(C)N1CCC(c2cc(-c3ccc(F)cc3F)c3ccc(=O)n(-c4c(Cl)cccc4Cl)c3c2)CC1
69.3

* * *

- Assay Procedure: Plasma clearance in rhesus monkey
- Type: ADME, organism-based, Macaca mulatta
Lab note: cut-off is 40 mL/min/kg. Strictly less in clearance is fulfilled. Exactly 40 mL/min/kg or more is not fulfilled.

hey, is clearance for CC(C)(C)N1CCC(c2cc(-c3ccc(F)cc3Cl)c3ccc(=O)n(-c4c(F)cccc4F)c3c2)CC1 lower than 40 mL/min/kg or not?
fulfilled

Now the same for CC(C)(C)N1CCC(c2cc3c(ccc(=O)n3-c3c(Cl)cccc3Cl)c(-c3ccc(F)cc3Cl)n2)CC1
not fulfilled

Now the same for CC(C)(C)N1CCC(c2cc(-c3ccc(F)cc3F)c3ccc(=O)n(-c4c(Cl)cccc4Cl)c3c2)CC1
fulfilled

Now the same for CC(C)(C)N1CCC(c2cc(-c3ccc(F)cc3Cl)c3ccc(=O)n(-c4c(Cl)cccc4Cl)c3c2)CC1
not fulfilled

Now the same for CC(C)(C)N1CCC(c2cc3c(ccc(=O)n3-c3c(Cl)cccc3Cl)c(-c3ccc(F)cc3F)n2)CC1
not fulfilled

The origin of these recorded values is ChEMBL document CHEMBL1148534.
